So I've got a bunch of molecules here, and I need their MIC values.
Tested on: Pseudomonas aeruginosa
ASSAY_SUMMARY: Antibacterial activity against Pseudomonas aeruginosa 100720
Assay type: functional

Input: # returns recorded MIC (system: Pseudomonas aeruginosa) for `CCCCCC[P+](CCCCCC)(CCCCCC)CCCCCCCCCC[P+](CCCCCC)(CCCCCC)CCCCCC.[I-].[I-]`
Output: 2 µg/mL

Input: What measured MIC is associated with `CCCCCC[P+](CCCCCC)(CCCCCC)CCCCCC[P+](CCCC)(CCCC)CCCC.[Br-].[Br-]` on Pseudomonas aeruginosa?
Output: > 64 µg/mL

Input: Lab request: please report MIC under test system Pseudomonas aeruginosa for `CCCC[P+](CCCC)(CCCC)CCCCCCCCCC[P+](CCCC)(CCCC)CCCC.[Br-].[Br-]`
Output: > 64 µg/mL

Input: Recorded MIC for `CCCCCC[P+](CCCCCC)(CCCCCC)CCCCCCCCCC[P+](CCCCCC)(CCCCCC)CCCCCC.[Br-].[Br-]` with Pseudomonas aeruginosa, please?
Output: 4 µg/mL

Input: Lab note: need MIC with Pseudomonas aeruginosa for entry `CCCCCC[N+](CCCCCC)(CCCCCC)CCCCCCCCCC[P+](CCCC)(CCCC)CCCC.[Br-].[Br-]` , please look it up.
Output: > 64 µg/mL

Input: Which MIC is reported with Pseudomonas aeruginosa for this entry: `CCCCCC[P+](CCCCCC)(CCCCCC)CCCCCC[P+](CCCCCC)(CCCCCC)CCCCCC.[Br-].[Br-]` ?
Output: 8 µg/mL

Input: Query the reported MIC for Pseudomonas aeruginosa; item: `CCCCCC[N+](CCCCCC)(CCCCCC)CCCCCC[N+](CCCCCC)(CCCCCC)CCCCCC.[Br-].[Br-]`
Output: > 64 µg/mL

Input: Find MIC (Pseudomonas aeruginosa) for the entry `CCCCCCCC[P+](CCCCCCCC)(CCCCCCCC)CCCCCC[P+](CCCCCCCC)(CCCCCCCC)CCCCCCCC.[Br-].[Br-]`
Output: > 64 µg/mL

====

System: Pseudomonas aeruginosa
ASSAY_SUMMARY: Antibacterial activity against Pseudomonas aeruginosa 100720
Type: functional
READOUT: MIC (µg/mL)
Supply the numeric figure in µg/mL, leaving out any unit text.

Input: Lookup: MIC / Pseudomonas aeruginosa / `CCCCCCCC[P+](CCCCCCCC)(CCCCCCCC)CCCCCC[P+](CCCCCC)(CCCCCC)CCCCCC.[Br-].[Br-]`
Output: 8

Input: GET /values?readout=MIC&system=Pseudomonas aeruginosa&item= `CCCCCC[P+](CCCCCC)(CCCCCC)CCCCCCCCCC[P+](CCCCCC)(CCCCCC)CCCCCC.[Cl-].[Cl-]`
Output: 4

Input: State its MIC on Pseudomonas aeruginosa: `CCCCCC[N+](CCCCCC)(CCCCCC)CCCCCCCCCC[N+](CCCCCC)(CCCCCC)CCCCCC.[Br-].[Br-]`
Output: 8

Input: Please state recorded MIC (tested on Pseudomonas aeruginosa) of `CCCCCC[N+](CCCCCC)(CCCCCC)CCCCCCCCCC[P+](CCCCCC)(CCCCCC)CCCCCC.[Br-].[Br-]`
Output: 8

Input: API: value(readout=MIC, system=Pseudomonas aeruginosa) for record `CCCCCC[P+](CCCCCC)(CCCCCC)CCCCCCCCCC[P+](CCCC)(CCCC)CCCC.[Br-].[Br-]`
Output: 64

====

Tested on: Acinetobacter baumannii
ASSAY_SUMMARY: Antibacterial activity against Acinetobacter baumannii ATCC 19606
Format: functional
MEASUREMENT_CONTEXT: ATCC 19606 = CIP 70.34 = JCM 6841
Record form. Attribute: MIC. Fill in for each entry.

Input: Fill in: MIC of `CCCCCCCC[P+](CCCCCCCC)(CCCCCCCC)CCCCCCCCCC[P+](CCCCCCCC)(CCCCCCCC)CCCCCCCC.[Br-].[Br-]` is ___
Output: > 64 µg/mL

Input: I have this compound here, `CCCCCC[P+](CCCCCC)(CCCCCC)CCCCCCCCCC[P+](CCCCCC)(CCCCCC)CCCCCC.[Cl-].[Cl-]` , and I need its recorded MIC.
Output: 2 µg/mL

Input: Entry under review: `CCCCCC[N+](CCCCCC)(CCCCCC)CCCCCC[P+](CCCC)(CCCC)CCCC.[Br-].[Br-]` . Reported MIC?
Output: > 64 µg/mL

Input: Sample `CCCCCC[P+](CCCCCC)(CCCCCC)CCCCCC[P+](CCCC)(CCCC)CCCC.[Br-].[Br-]` — what was its MIC?
Output: > 64 µg/mL

Input: // MIC lookup, key: `CCCCCCCC[P+](CCCCCCCC)(CCCCCCCC)CCCCCC[P+](CCCCCC)(CCCCCC)CCCCCC.[Br-].[Br-]`
Output: 4 µg/mL

Input: Look up MIC: `CCCCCCCC[P+](CCCCCCCC)(CCCCCCCC)CCCCCC[P+](CCCCCCCC)(CCCCCCCC)CCCCCCCC.[Br-].[Br-]`
Output: 8 µg/mL

Input: State the recorded MIC for this entry: `CCCCCC[N+](CCCCCC)(CCCCCC)CCCCCCCCCC[P+](CCCC)(CCCC)CCCC.[Br-].[Br-]`
Output: > 64 µg/mL

Input: Field request: MIC | item: `CCCCCC[N+](CCCCCC)(CCCCCC)CCCCCCCCCC[P+](CCCCCC)(CCCCCC)CCCCCC.[Br-].[Br-]`
Output: 8 µg/mL

Input: Please report the recorded MIC for `CCCCCC[N+](CCCCCC)(CCCCCC)CCCCCCCCCC[N+](CCCCCC)(CCCCCC)CCCCCC.[Br-].[Br-]` .
Output: 16 µg/mL

Input: # MIC lookup, item `CCCCCC[P+](CCCCCC)(CCCCCC)CCCCCCCCCC[P+](CCCCCC)(CCCCCC)CCCCCC.[I-].[I-]`
Output: 2 µg/mL

Input: // lookup MIC for `CCCCCC[P+](CCCCCC)(CCCCCC)CCCCCC[P+](CCCCCC)(CCCCCC)CCCCCC.[Br-].[Br-]`
Output: 16 µg/mL

Input: Requested read-out: MIC. Entry: `CCCCCC[P+](CCCCCC)(CCCCCC)CCCCCCCCCC[P+](CCCC)(CCCC)CCCC.[Br-].[Br-]`
Output: 8 µg/mL

Input: Fill blank: measured MIC of the compound `CCCCCC[P+](CCCCCC)(CCCCCC)CCCCCCCCCC[P+](CCCCCC)(CCCCCC)CCCCCC.[Br-].[Br-]` is ____.
Output: 4 µg/mL

Input: Would you mind telling me what MIC value was observed for `CCCC[P+](CCCC)(CCCC)CCCCCC[P+](CCCC)(CCCC)CCCC.[Br-].[Br-]` ?
Output: > 64 µg/mL

Input: MIC for `CCCC[P+](CCCC)(CCCC)CCCCCCCCCC[P+](CCCC)(CCCC)CCCC.[Br-].[Br-]` ?
Output: > 64 µg/mL

Input: Any idea what MIC was measured for `CCCCCC[N+](CCCCCC)(CCCCCC)CCCCCC[N+](CCCCCC)(CCCCCC)CCCCCC.[Br-].[Br-]` ?
Output: > 64 µg/mL

====

System: Pseudomonas aeruginosa
ASSAY_SUMMARY: Antibacterial activity against Pseudomonas aeruginosa 100720
Assay type: functional
READOUT: MIC

Input: Which MIC is reported with Pseudomonas aeruginosa for this entry: `CCCCCCCC[P+](CCCCCCCC)(CCCCCCCC)CCCCCCCCCC[P+](CCCCCCCC)(CCCCCCCC)CCCCCCCC.[Br-].[Br-]` ?
Output: > 64 µg/mL

Input: Tell me reported MIC for `CCCCCC[N+](CCCCCC)(CCCCCC)CCCCCC[P+](CCCC)(CCCC)CCCC.[Br-].[Br-]` , tested with Pseudomonas aeruginosa.
Output: > 64 µg/mL

Input: What measured MIC is associated with `CCCC[P+](CCCC)(CCCC)CCCCCC[P+](CCCC)(CCCC)CCCC.[Br-].[Br-]` on Pseudomonas aeruginosa?
Output: > 64 µg/mL
